Cited source for all entries: patent US10118902B2

tgt: UniProt:P30989
assay.info: NTR1 dose response, high-content imaging beta-arrestin-GFP assay in NTR1-U2OS cells
Assay type: cell-based
study.conditions: read-out: EC50
measured.parameter: EC50

Completed entries (count: 5):
[[record]]
compound = "CCCN(CCC)c1ccc2nc(N(C)C)nc(N3CCC(c4ccccc4OC)CC3)c2c1"
measured_parameter = "EC50"
value_measured = "> 10000 nM"

[[record]]
compound = "CCN(C)c1ccc2nc(C3CC3)nc(N3CCC(c4ccccc4N4CCC4)CC3)c2c1"
measured_parameter = "EC50"
value_measured = "> 10000 nM"

[[record]]
compound = "COc1ccccc1C1CCN(c2nc(N(C)C)nc3ccc(N(C)CCO)cc23)CC1"
measured_parameter = "EC50"
value_measured = "500 to 2000 nM"

[[record]]
compound = "COc1ccccc1C1CCN(c2nc(C3(F)CC3)nc3c(Cl)cc(N4CC[C@@H](O)C4)cc23)CC1 (stereo in doubt)"
measured_parameter = "EC50"
value_measured = "500 to 2000 nM"

[[record]]
compound = "COc1ccccc1C1CCN(c2nc(C3CCCC3)nc3ccc(N(C)C)cc23)CC1"
measured_parameter = "EC50"
value_measured = "> 10000 nM"


Batch lookup, EC50 per entry.
1. COc1ccccc1C1CCN(c2nc(C3CCC3)nc3ccc(N(C)CCO)cc23)CC1
2. COc1ccccc1C1CCN(c2nc(C3(C(F)(F)F)CCCC3)nc3ccc(N(C)CCN4CCOCC4)cc23)CC1
3. COCCN(C)c1ccc2nc(C3(C)CC3)nc(N3CCC(c4ccccc4N(C)C)CC3)c2c1

Result:
1. 500 to 2000 nM
2. 2000 to 10000 nM
3. > 10000 nM

---

Task for the reader: assign each of the following molecules its reported EC50.
tgt: neurotensin receptor 1 (NTR1) (Homo sapiens (Human))
assay.info: NTR1 dose response, high-content imaging beta-arrestin-GFP assay in NTR1-U2OS cells
Type: cell-based
study.conditions: read-out: EC50

Batch lookup, EC50 per entry.
1. CN(CCO[Si](C)(C)C(C)(C)C)c1ccc2nc(C3(F)CC3)nc(N3CCC(c4ccccc4O)CC3)c2c1
2. COc1cc(F)ccc1C1CCN(c2nc(C3CC3)nc3cc(F)c(N(C)CCO)cc23)CC1

Result:
["2 to 10 µM", "0.5 to 2 µM"]

---

tgt: neurotensin receptor 1 (NTR1) (Homo sapiens (Human), UniProt P30989)
Sequence (P30989 whole entry, species assumed): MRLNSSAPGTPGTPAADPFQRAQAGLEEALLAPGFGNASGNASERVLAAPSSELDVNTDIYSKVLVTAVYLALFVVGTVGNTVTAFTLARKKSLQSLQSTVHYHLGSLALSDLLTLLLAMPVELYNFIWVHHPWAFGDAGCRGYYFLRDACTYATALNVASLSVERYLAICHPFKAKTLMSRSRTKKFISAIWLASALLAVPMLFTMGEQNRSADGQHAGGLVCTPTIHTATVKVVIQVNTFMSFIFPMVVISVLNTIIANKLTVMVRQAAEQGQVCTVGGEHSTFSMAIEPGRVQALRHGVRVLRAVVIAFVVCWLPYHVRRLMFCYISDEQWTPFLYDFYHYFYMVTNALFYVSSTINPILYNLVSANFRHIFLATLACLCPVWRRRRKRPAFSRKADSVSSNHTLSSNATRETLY
assay.info: NTR1 dose response, high-content imaging beta-arrestin-GFP assay in NTR1-U2OS cells
Assay type: cell-based
study.conditions: read-out: EC50
pEC50: −log10 of the molar value.
Task for the reader: assign each of the following compounds its reported pEC50.

[[record]]
compound = "COc1ccccc1C1CCN(c2nc(C3(F)CC3)nc3ccc(N4CC[C@H](O)C4)cc23)CC1"
value_measured = "5.70 to 6.30"

[[record]]
compound = "COc1ccccc1C1CCN(c2nc(C3(F)CC3)nc3cc(Cl)c(N(C)CCO)cc23)CC1"
value_measured = "5.70 to 6.30"

[[record]]
compound = "COc1ccccc1C1CCN(c2nc(C3CC3)nc3ccc(N4CC[C@H](O)C4)cc23)CC1 [Example 82]"
value_measured = "5.70 to 6.30"

[[record]]
compound = "COc1ccsc1C1CCN(c2nc(C3CC3)nc3ccc(N(C)CCO)cc23)CC1 [Example 190]"
value_measured = "5.00 to 5.70"

[[record]]
compound = "CN(C)c1ccccc1C1CCN(c2nc(C3CC3)nc3ccc(N(C)CCO)cc23)CC1"
value_measured = "5.00 to 5.70"

[[record]]
compound = "COc1ccccc1N[C@@H]1CCN(c2nc(C3CC3)nc3ccc(N(C)CCO)cc23)C1 (stereo in doubt)"
value_measured = "< 5.00"

[[record]]
compound = "CN(CCN1CCCC1)c1ccc2nc(C3CC3)nc(N3CCC(c4ccccc4N4CCC4)CC3)c2c1"
value_measured = "< 5.00"

[[record]]
compound = "CN(C)c1ccccc1C1CCN(c2nc(C3(C)CC3)nc3ccc(N(C)CCN4CCCC4)cc23)CC1"
value_measured = "< 5.00"

[[record]]
compound = "COc1ccccc1C1CCN(c2nc(-c3ccccc3)nc3ccc(N(C)CCO)cc23)CC1"
value_measured = "5.00 to 5.70"

[[record]]
compound = "COc1ccccc1C1CCN(c2nc(C3CC3)nc3c(F)cc(N(C)CCO)cc23)CC1"
value_measured = "> 6.30"


Batch lookup, pEC50 per entry.
1. COc1nccnc1C1CCN(c2nc(C3(C)CC3)nc3ccc(N(C)CCO)cc23)CC1
2. CN(C)CCN(C)c1ccc2nc(C3(C)CC3)nc(N3CCC(c4ccccc4N(C)C)CC3)c2c1
3. COc1ccccc1C1CCN(c2nc(C3CCCC3)nc3ccc(N(C)CCN4CCOCC4)cc23)CC1
4. COc1cc(I)ccc1C1CCN(c2nc(C3(F)CC3)nc3ccc(N(C)CCO)cc23)CC1

Result:
1: 5.70 to 6.30; 2: < 5.00; 3: < 5.00; 4: < 5.00

Batch lookup, pEC50 per entry.
1. CN(C)c1ccccc1C1CCN(c2nc(C3(C(F)(F)F)CCC3)nc3ccc(N(C)CCN4CCOCC4)cc23)CC1
2. CN(C)CCN(C)c1ccc2nc(C3CC3)nc(N3CCC(c4ccccc4N(C)C)CC3)c2c1

Result:
["< 5.00", "5.00 to 5.70"]

---

tgt: UniProt:P30989
assay.info: NTR1 dose response, high-content imaging beta-arrestin-GFP assay in NTR1-U2OS cells
Assay type: cell-based
study.conditions: read-out: EC50
Text: The cell lines utilized in the high-content imaging assays, which include the NTR1-, NTR2-, and GPR35-U2OS osteosarcomas, were obtained from the laboratory of Dr. Lawrence Barak at the Duke University Medical Center. […]
pEC50: −log10 of the molar value.
measured.parameter: pEC50

Completed entries (count: 5):
[[record]]
compound = "CN(C)c1ccccc1C1CCN(c2nc(C3(F)CCCC3)nc3ccc(N(C)CCO)cc23)CC1"
measured_parameter = "pEC50"
value_measured = "5.00 to 5.70"

[[record]]
compound = "CCOC(=O)CN(C)c1ccc2nc(C3CC3)nc(N3CCC(c4ccccc4OC)CC3)c2c1"
measured_parameter = "pEC50"
value_measured = "< 5.00"

[[record]]
compound = "COc1ccccc1C1CCN(c2nc(C3CC3)nc3cc(C)c(N(C)CCO)cc23)CC1"
measured_parameter = "pEC50"
value_measured = "> 6.30"

[[record]]
compound = "CN(C)c1ccc2nc(C3CC3)nc(N3CCC(c4ccccc4N4CCC4)CC3)c2c1"
measured_parameter = "pEC50"
value_measured = "< 5.00"

[[record]]
compound = "COc1cccc2c1CCN(c1nc(C3CC3)nc3ccc(N(C)CCO)cc13)CC2"
measured_parameter = "pEC50"
value_measured = "< 5.00"


Batch lookup, pEC50 per entry.
1. CN(C)c1ccccc1C1CCN(c2nc(C3(C)CCC3)nc3ccc(N(C)CCO)cc23)CC1
2. CN(C)c1ccccc1C1CCN(c2nc(C3(F)CCCC3)nc3ccc(N(C)CCN4CCOCC4)cc23)CC1
3. COc1ccccc1C1CCN(c2nc(C3CC3)nc3ccc(N4CCC(OC)C4)cc23)CC1 (centres unmarked)
4. CCCN(C)c1cc2c(N3CCC(c4ccccc4OC)CC3)nc(C3CC3)nc2cc1C
5. CN(CCO)c1ccc2nc(C3CC3)nc(N3CCN(C4CCCC4O)CC3)c2c1 (centres unmarked)

Result:
["5.70 to 6.30", "5.00 to 5.70", "5.70 to 6.30", "5.70 to 6.30", "< 5.00"]

Batch lookup, pEC50 per entry.
1. CCCN(C)C(=O)Cc1c(C)nc(N2CCC(c3ccccc3OC)CC2)nc1C1CC1
2. COc1ccccc1C1CCN(c2nc(C3CC3)nc3ccc(N4CC[C@H](OC)C4)cc23)CC1 [Example 84]
3. COc1ccccc1C1CCN(c2nc(C3(N(C)C)CC3)nc3ccc(N(C)C)cc23)CC1

Result:
1. < 5.00
2. 5.70 to 6.30
3. < 5.00

Batch lookup, pEC50 per entry.
1. COc1cccnc1N1CCN(c2nc(C3(F)CC3)nc3c(F)cc(N(C)CCO)cc23)CC1
2. COc1ccccc1C1CCN(c2nc(C3CC3)nc3ccc(N(C)CCO)c(Cl)c23)CC1
3. COc1ccccc1C1CCN(c2nc(C3CC3)nc3ccc(CN(C)CCO)cc23)CC1
4. CN(C)CCN(C)c1ccc2nc(C3(C)CC3)nc(N3CCC(c4ccccc4N4CCC4)CC3)c2c1

Result:
5.70 to 6.30
> 6.30
< 5.00
< 5.00

---

Task for the reader: assign each of the following compounds its reported pEC50.
tgt: neurotensin receptor 1 (NTR1) (Homo sapiens (Human))
assay.info: NTR1 dose response, high-content imaging beta-arrestin-GFP assay in NTR1-U2OS cells
Type: cell-based
study.conditions: read-out: EC50
pEC50: −log10 of the molar value.

Completed entries (count: 7):
[[record]]
compound = "COCCN(C)c1ccc2nc(C3(F)CC3)nc(N3CCC(c4ccccc4OC)CC3)c2c1"
value_measured = "5.70 to 6.30"

[[record]]
compound = "COc1ccccc1C1CCN(c2nc(C3(F)CC3)nc3cnc(N4CC[C@@H](O)C4)cc23)CC1"
value_measured = "5.70 to 6.30"

[[record]]
compound = "COc1ccc(F)cc1C1CCN(c2nc(C3CC3)nc3cc(F)c(N(C)CCO)cc23)CC1"
value_measured = "5.70 to 6.30"

[[record]]
compound = "CN(CCOCCF)c1ccc2nc(C3(F)CC3)nc(N3CCC(c4ccccc4OCCF)CC3)c2c1"
value_measured = "5.00 to 5.70"

[[record]]
compound = "COc1ccccc1C1CCN(c2nc(C3(F)CCC3)nc3ccc(N(C)CCO)cc23)CC1"
value_measured = "> 6.30"

[[record]]
compound = "COc1cnccc1C1CCN(c2nc(C3(F)CC3)nc3ccc(N(C)CCO)cc23)CC1"
value_measured = "< 5.00"

[[record]]
compound = "COc1ccsc1C1CCN(c2nc(C3CC3)nc3ccc(N(C)CCO)cc23)CC1 [Example 138]"
value_measured = "5.70 to 6.30"


Next item in the queue.
Request: Name the recorded pEC50 for `CCCN(C)Cc1ccc2nc(C3CC3)nc(N3CCC(c4ccccc4OC)CC3)c2c1` .
Result: < 5.00
